Protocol summary: Assessment of Plasma Exposure in DBA/2J mice
Format: in vivo, mouse
Reported conditions: male, DBA/2J, mouse, plasma, ip, 100 mg/kg, Group 5: 100 mg/kg IP, Vehicle 1; mouse plasma
Property name: Cmax (µg/mL)
Field format: number, assumed µg/mL, no unit text.

Query: Look up Cmax for this compound: COCCNc1nc(-c2nccn2C)nc2sc(-c3cccc(OC)c3Cl)c(-c3ccccc3)c12
Result: 26

* * *

Below, each entry is listed alongside its reported inhibition at 20 µM.
Target or system: KRas G12D mutant (Homo sapiens (Human), UniProt P01116, G12D)
Sequence (P01116 other isoform, or with tags, fused parts or gaps G12D): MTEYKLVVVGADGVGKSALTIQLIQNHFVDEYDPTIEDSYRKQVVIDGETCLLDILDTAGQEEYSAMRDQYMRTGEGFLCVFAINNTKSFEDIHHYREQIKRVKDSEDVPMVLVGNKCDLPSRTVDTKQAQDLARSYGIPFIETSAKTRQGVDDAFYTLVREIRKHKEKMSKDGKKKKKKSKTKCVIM
Protocol summary: Ras GTP Binding Domain Inhibition Assay, KRas G12D mutant
Reported conditions: 20 μM; without SOS; Table 7; read-out: KRas G12D mutant: % inh.

Some molecules with known inhibition at 20 µM results, for comparison:
>>> experimental_value("CO[C@H]1CC[C@@H](Nc2nc(-c3nccn3C)nc3sc(-c4ccn(C(C)C)n4)c(C)c23)C1 (racemic)")
"46 to 75%"
>>> experimental_value("COCCOc1nc(-c2nccn2C)nc2sc(-c3ccn(C(C)C)n3)c(C)c12")
"0%"
>>> experimental_value("COC1CCN(c2nc(-c3nccn3C)nc3sc(-c4ccn(C)n4)c(-c4ccccc4)c23)CC1")
"26 to 45%"
>>> experimental_value("Cc1c(-c2ccn(C(C)C)n2)sc2nc(-c3nccn3C)nc(NCC3CCCO3)c12 (racemic)")
"76 to 100%"

Query: Would you mind telling me what inhibition at 20 µM value was observed for COCCCn1c(-c2nccn2C)nc2sc(-c3ccn(C(C)C)n3)c(-c3ccccc3)c2c1=O ?
Result: 0%

Query: Repeat for the following molecule: COCCCCn1c(-c2nccn2C)nc2sc(-c3ccn(C(C)C)n3)c(C)c2c1=O
Result: 0%

Query: And the next one, COCCCCOc1nc(-c2nccn2C)nc2sc(-c3ccn(C(C)C)n3)c(C)c12 ?
Result: 1 to 25%

Query: Try COc1cccc(-c2sc3nc(-c4nccn4C)nc(NC4CCC(OC)C4)c3c2C)c1F (racemic) next.
Result: 76 to 100%

Query: Consider next the molecule CO[C@H]1CC[C@@H](Nc2nc(-c3nccn3C)nc3sc(-c4ccn(C)n4)c(-c4ccccc4)c23)C1 (racemic) in the same way.
Result: 1 to 25%

* * *

A collection of compounds and their measured inhibition at 20 µM
Target or system: Rac-1 (Homo sapiens (Human))
Protocol summary: Ras GTP Binding Domain Inhibition Assay, Rac-1
Reported conditions: without SOS, read-out: Rac-1: % inh.

Example results:
>>> experimental_value("COCCCn1c(-c2nccn2C)nc2sc(-c3ccn(C(C)C)n3)c(-c3ccccc3)c2c1=O [Compound 36]")
"0%"
>>> experimental_value("COCCOc1nc(-c2nccn2C)nc2sc(-c3ccn(C(C)C)n3)c(C)c12 [Compound 30]")
"0%"

Please turn your attention to the following entry.
Query: Could you share which inhibition at 20 µM value was measured for COCCn1c(-c2nccn2C)nc2sc(-c3ccn(C(C)C)n3)c(C)c2c1=O [Compound 29] ?
Result: 0%

* * *

Target or system: Rho-A (Homo sapiens (Human), UniProt P61586)
Sequence (P61586 whole entry, species assumed, the tested form may be a part): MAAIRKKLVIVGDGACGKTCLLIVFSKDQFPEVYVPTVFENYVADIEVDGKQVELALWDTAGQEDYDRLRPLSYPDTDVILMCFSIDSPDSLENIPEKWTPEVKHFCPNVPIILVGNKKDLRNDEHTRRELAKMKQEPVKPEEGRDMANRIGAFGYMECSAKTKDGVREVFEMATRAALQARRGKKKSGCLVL
Protocol summary: Ras GTP Binding Domain Inhibition Assay, Rho-A
Reported conditions: without SOS, read-out: Rho-A: % inh.
Property name: inhibition at 20 µM

Known inhibition at 20 µM results, listed for orientation:
>>> experimental_value("COCCNc1nc(-c2nccn2C)nc2sc(-c3cccc(OC)c3Cl)c(-c3ccc(OC)cc3)c12")
"26 to 45%"
>>> experimental_value("COCCNc1nc(-c2nccn2C)nc2sc(-c3cccc(OC)c3Cl)c(-c3ccccc3)c12")
"26 to 45%"
>>> experimental_value("Cc1c(-c2ccn(C(C)C)n2)sc2nc(-c3nccn3C)nc(NCC3CN(C)CCO3)c12 (racemic)")
"76 to 100%"
>>> experimental_value("Cc1c(-c2ccn(C(C)C)n2)sc2nc(-c3nccn3C)nc(NCC3COCCN3C)c12 (racemic)")
"46 to 75%"
>>> experimental_value("Cc1c(-c2ccn(C(C)C)n2)sc2nc(-c3nccn3C)nc(NCC3CCCO3)c12 (racemic)")
"76 to 100%"

// next item, inhibition at 20 µM requested
Query: // query inhibition at 20 µM value for entry COc1cccc(Nc2nc(-c3nccn3C)nc3sc(-c4ccn(C(C)C)n4)c(C)c23)n1
Result: 76 to 100%
